Listing of recorded Ki by entry.
# tested system: single-chain tethered dimer of HIV protease (Human immunodeficiency virus 1)
# experiment summary: biochemical
# Format: biochemical
# Parameters: fused on or other part: A second copy of the same protease unit is joined to the first by a short peptide tether, giving one polypeptide
# study conditions: Table 2d; HIV protease inhibition, HPLC method; read-out: HPLC K1

Consider the following illustrative entries.
{"compound": "O=C1N(Cc2cccc(CCO)c2)C(Cc2ccccc2)C(O)C(O)C(Cc2ccccc2)N1Cc1cccc(CCO)c1 (stereo not shown) [15DX]", "Ki": "< 10 nM"}
{"compound": "NC(=NO)c1cc(CN2C(=O)N(Cc3ccc(F)c(C(N)=NO)c3)C(Cc3ccccc3)C(O)C(O)C2Cc2ccccc2)ccc1F (stereo not shown) [15EF]", "Ki": "< 10 nM"}
{"compound": "CNC(=O)OCCCCCN1C(=O)N(CCCCCOC(=O)NC)C(Cc2ccccc2)C(O)C(O)C1Cc1ccccc1 (stereo not shown) [15EK]", "Ki": "10 to 1000 nM"}
{"compound": "CC(=O)c1cccc(CN2C(=O)N(Cc3cccc(C(=O)CCN(C)C)c3)C(Cc3ccccc3)C(O)C(O)C2Cc2ccccc2)c1 (stereo not shown) [15AD]", "Ki": "< 10 nM"}
{"compound": "O=C1Cc2cc(CN3C(=O)N(Cc4ccc5c(c4)CC(=O)N5)C(Cc4ccccc4)C(O)C(O)C3Cc3ccccc3)ccc2N1 (stereo not shown) [15DD]", "Ki": "< 10 nM"}
{"compound": "O=C1Nc2ccc(CN3C(=O)N(Cc4ccc5c(c4)C(=NO)C(=O)N5)C(Cc4ccccc4)C(O)C(O)C3Cc3ccccc3)cc2C1=NO (stereo not shown) [15DB]", "Ki": "< 10 nM"}

Value of Ki reported for the compound Nc1n[nH]c2ccc(CN3C(=O)N(Cc4ccc5[nH]nc(N)c5c4)C(Cc4ccccc4)C(O)C(O)C3Cc3ccccc3)cc12 (stereo not shown) [15DF] is < 10 nM

###

# tested system: HIV protease (Human immunodeficiency virus type 1 group M subtype B)
# Construct: plasmid containing HIV protease under the control of an inducible T7 promoter; made in house; host or cells: E. coli (inclusion bodies, T7 promoter)
# experiment summary: biochemical
# Design: species or system HIV-1
# study conditions: Table 2j; read-out: Ki
pKi: −log10 of the molar value.
metric name: pKi

Please review the entries below; each comes with its answer.
{"compound": "N#Cc1cccc(CN2C(=O)N3C(Cc4ccccc4)C3C(O)C2Cc2ccccc2)c1 (centres unmarked) [Example 21F]", "pKi": "< 6.00"}
{"compound": "O=C1NC(Cc2ccccc2)C(O)C2C(Cc3ccccc3)N12 (centres unmarked) [Example 21A]", "pKi": "< 6.00"}
{"compound": "O=C1N(Cc2cccc(OCc3ccccc3)c2)C(Cc2ccccc2)C(O)C2C(Cc3ccccc3)N12 (centres unmarked) [Example 21E]", "pKi": "< 6.00"}
{"compound": "NC(=NO)c1cccc(CN2C(=O)N3C(Cc4ccccc4)C3C(O)C2Cc2ccccc2)c1 (centres unmarked) [Example 21H]", "pKi": "6.00 to 8.00"}
{"compound": "NC(=O)c1cccc(CN2C(=O)N3C(Cc4ccccc4)C3C(O)C2Cc2ccccc2)c1 (centres unmarked) [Example 21G]", "pKi": "6.00 to 8.00"}

Entry O=C1N(Cc2ccccc2)C(Cc2ccccc2)C(O)C2C(Cc3ccccc3)N12 (centres unmarked) [Example 21D] ; pKi = < 6.00

Field pKi (entry CC(=O)OC1C(Cc2ccccc2)N(Cc2ccccc2)C(=O)N2C(Cc3ccccc3)C12 (centres unmarked) [Example 21B] ) reads < 6.00

The reported value for O=C1N(Cc2ccccc2)C(Cc2ccccc2)C(OCc2ccccc2)C2C(Cc3ccccc3)N12 (centres unmarked) [Example 21C] in terms of pKi is 6.00 to 8.00

###

# tested system: single-chain tethered dimer of HIV protease (Human immunodeficiency virus 1, UniProt P04585)
# experiment summary: biochemical
# Format: biochemical
# Parameters: fused on or other part: A second copy of the same protease unit is joined to the first by a short peptide tether, giving one polypeptide
# study conditions: read-out: K4 HPLC; Table 2e
Listed below: Ki values for each entry.

{"compound": "CC1C(O)C(O)C(C)N(Cc2ccc3ccccc3c2)C(=O)N1Cc1ccc2ccccc2c1 (stereo not drawn) [Example 16H]", "Ki": "> 1000 nM"}

Sure, the documented Ki for C=CCN1C(=O)N(CC=C)C(CC(C)C)C(O)C(O)C1CC(C)C (stereo not drawn) [Example 16I] is < 10 nM

Reported Ki of CCCCCCC1C(O)C(O)C(CCCCCC)N(Cc2ccccc2)C(=O)N1Cc1ccccc1 (stereo not drawn) [Example 16AI] : 10 to 1000 nM

###

# tested system: HIV protease (Human immunodeficiency virus type 1 group M subtype B, UniProt P04585)
# Construct: plasmid containing HIV protease under the control of an inducible T7 promoter; made in house; host or cells: E. coli (inclusion bodies, T7 promoter)
# experiment summary: biochemical
# Set-up: species or system HIV-1
# study conditions: Table 1a; read-out: Ki
Ki values for the compounds below.

Examples with answers:
{"compound": "CC(C)=CCN1C(=O)N(C)C(Cc2ccccc2)C(O)C(O)C1Cc1ccccc1 (stereo not shown) [Example 1BD]", "Ki": "10 to 1000 nM"}
{"compound": "CC(C)C(NCCN1C(=O)N(CCO)C(Cc2ccccc2)C(O)C(O)C1Cc1ccccc1)C(=O)OCc1ccccc1 (stereo not shown) [Example 1T]", "Ki": "10 to 1000 nM"}

Input COCCOCCN1C(=O)N(CCOCCOC)C(Cc2ccccc2)C(O)C(O)C1Cc1ccccc1 (stereo not shown) [Example 1J] . Output Ki: > 1000 nM

The compound listed as CC(C)=CCN1C(=O)NC(Cc2ccccc2)C(O)C(O)C1Cc1ccccc1 (stereo not shown) [Example 1AE] has a reported Ki of < 10 nM

Consider CC(C)=CCN1C(=O)N(CC=C(C)C)C(Cc2ccccc2)C(O)C(O)C1Cc1ccccc1 (stereo not shown) [Example 1AC] . Its measured Ki is < 10 nM

Measured Ki, O=C1N(CCCc2ccccc2)C(Cc2ccccc2)C(O)C(O)C(Cc2ccccc2)N1CCCc1ccccc1 (stereo not shown) [Example 1AS] : 10 to 1000 nM

Reported Ki of C=CCN1C(=O)N(CC=C(C)C)C(Cc2ccccc2)C(O)C(O)C1Cc1ccccc1 (stereo not shown) [Example 1AT] : < 10 nM

// field: Ki; key: O=C1N(CCN2CCOCC2)C(Cc2ccccc2)C(O)C(O)C(Cc2ccccc2)N1CCN1CCOCC1 (stereo not shown) [Example 1AA] ; value = > 1000 nM

Just so you know, measured Ki for CC(C)CCCC(C)CCN1C(=O)NC(Cc2ccccc2)C(O)C(O)C1Cc1ccccc1 (stereo not shown) [Example 1Q] came out at 10 to 1000 nM

###

Listed here: items and their measured IC90.
# System: HIV-1 (RF) in MT-2 cells
# experiment summary: microbe, parasite or virus in culture
# Type: cell-based
# study conditions: Human immunodeficiency virus 1, MT2, 24 h, Table 1d, upper part; read-out: IC90

Examples with their reported IC90 follow.
{"compound": "CC1(C)OC2C(O1)C(Cc1ccccc1)N(Cc1ccc3ccccc3c1)C(=O)N(Cc1ccc3ccccc3c1)C2Cc1ccccc1 (centres unmarked)", "endpoint result": "> 100 µg/mL"}
{"compound": "O=C1N(Cc2ccc3ccccc3c2)[C@H](Cc2ccccc2)C[C@@H](O)[C@@H](Cc2ccccc2)N1Cc1ccc2ccccc2c1", "endpoint result": "> 100 µg/mL"}
{"compound": "CCCC1(OC)OC2C(O1)C(Cc1ccccc1)N(Cc1ccc3ccccc3c1)C(=O)N(Cc1ccc3ccccc3c1)C2Cc1ccccc1 (centres unmarked)", "endpoint result": "> 50 µg/mL"}

Field IC90 (entry C=CCN1C(=O)N(CC=C)C(Cc2ccccc2)C2OCSCOC2C1Cc1ccccc1 (centres unmarked) ) reads 10 to 100 µg/mL

The value of IC90 measured for the compound O=C1N(Cc2ccc3ccccc3c2)C(Cc2ccccc2)C2OCOC2C(Cc2ccccc2)N1Cc1ccc2ccccc2c1 (centres unmarked) turned out to be 10 to 100 µg/mL

// IC90 value for O=C1N(CC2CC2)C(Cc2ccccc2)C2OC(=S)OC2C(Cc2ccccc2)N1CC1CC1 (centres unmarked) : < 10 µg/mL

The value of IC90 measured for the compound O=C1N(CC2CC2)C(Cc2ccccc2)C2OCOC2C(Cc2ccccc2)N1CC1CC1 (centres unmarked) turned out to be 10 to 100 µg/mL

###

Form field: pKi (one value per entry).
# tested system: single-chain tethered dimer of HIV protease (Human immunodeficiency virus 1)
# experiment summary: biochemical
# Format: biochemical
# Design: fused on or other part: A second copy of the same protease unit is joined to the first by a short peptide tether, giving one polypeptide
# study conditions: read-out: HPLC K1; Table 2d; class symbols
pKi: −log10 of the molar value.

Illustrative cases are given below, each with its answer.
{"molecule": "CCCCN1C(=O)N(CCCC)C(Cc2ccccc2)C(O)C(O)C1Cc1ccccc1 (stereo not drawn) [Example 13R]", "tested system": "single-chain tethered dimer of HIV protease (Human immunodeficiency virus 1)", "endpoint result": "6.00 to 8.00"}
{"molecule": "CCCCCC#CCN1C(=O)N(CC#CCCCCC)C(Cc2ccccc2)C(O)C(O)C1Cc1ccccc1 (stereo not drawn) [Example 14E]", "tested system": "single-chain tethered dimer of HIV protease (Human immunodeficiency virus 1)", "endpoint result": "6.00 to 8.00"}
{"molecule": "CNc1cccc(CN2C(=O)N(Cc3cccc(NC)c3)C(Cc3ccccc3)C(O)C(O)C2Cc2ccccc2)c1 (stereo not drawn) [15D]", "tested system": "single-chain tethered dimer of HIV protease (Human immunodeficiency virus 1)", "endpoint result": "> 8.00"}

Log: single-chain tethered dimer of HIV protease (Human immunodeficiency virus 1), molecule O=C1NC(Cc2ccccc2)C(O)C(O)C(Cc2ccccc2)N1CCOCCO (stereo not drawn) [Example 12T] , pKi = 6.00 to 8.00

Simply: CCCCC(O)CN1C(=O)NC(Cc2ccccc2)C(O)C(O)C1Cc1ccccc1 (stereo not drawn) [Example 15VM] , single-chain tethered dimer of HIV protease (Human immunodeficiency virus 1), pKi = < 6.00

The recorded pKi with single-chain tethered dimer of HIV protease (Human immunodeficiency virus 1) for CCCNC(=O)c1cccc(CN2C(=O)N(Cc3cccc(C(=O)O)c3)C(Cc3ccccc3)C(O)C(O)C2Cc2ccccc2)c1 (stereo not drawn) [15WO] was > 8.00

Lab note: molecule NC(=O)c1cccc(CN2C(=O)NC(Cc3ccccc3)C(O)C(O)C2Cc2ccccc2)c1 (stereo not drawn) [15WW] tested on single-chain tethered dimer of HIV protease (Human immunodeficiency virus 1); recorded pKi was > 8.00

GET /values?item= O=C1N(Cc2ccc(CO)cc2)C(Cc2ccccc2)C(O)C(O)C(Cc2ccccc2)N1Cc1cccc([N+](=O)[O-])c1 (stereo not drawn) [15J] &system= single-chain tethered dimer of HIV protease (Human immunodeficiency virus 1) returns pKi: > 8.00

single-chain tethered dimer of HIV protease (Human immunodeficiency virus 1) assay, molecule CCN(CC)C(=O)c1cccc(CN2C(=O)N(Cc3cccc(C(=O)OC)c3)C(Cc3ccccc3)C(O)C(O)C2Cc2ccccc2)c1 (stereo not drawn) [11T] , recorded pKi = > 8.00

Note to self: pKi of CNc1cccc(CN2C(=O)N(Cc3ccc4ccccc4c3)C(Cc3ccccc3)C(O)C(O)C2Cc2ccccc2)c1 (stereo not drawn) [15WZ] with single-chain tethered dimer of HIV protease (Human immunodeficiency virus 1) was > 8.00

Measured pKi for this entry O=C(O)c1cccc(CN2C(=O)N(Cc3ccccc3)C(Cc3ccccc3)C(O)C(O)C2Cc2ccccc2)c1 (stereo not drawn) [15WP] on single-chain tethered dimer of HIV protease (Human immunodeficiency virus 1): > 8.00

The measured pKi that Nc1cccc(CN2C(=O)N(Cc3ccc4ccccc4c3)C(Cc3ccccc3)C(O)C(O)C2Cc2ccccc2)c1 (stereo not drawn) [15WU] showed for single-chain tethered dimer of HIV protease (Human immunodeficiency virus 1) is > 8.00

Record CNc1cccc(CN2C(=O)N(Cc3ccc(CO)cc3)C(Cc3ccccc3)C(O)C(O)C2Cc2ccccc2)c1 (stereo not drawn) [15M] / single-chain tethered dimer of HIV protease (Human immunodeficiency virus 1), pKi recorded as > 8.00

GET /values?item= O=C1N(CCCCCO)C(Cc2ccccc2)C(O)C(O)C(Cc2ccccc2)N1Cc1cccc(CO)c1 (stereo not drawn) [Example 15WE] &system= single-chain tethered dimer of HIV protease (Human immunodeficiency virus 1) returns pKi: > 8.00

The observed pKi for CONC(=O)c1cccc(CN2C(=O)N(Cc3cccc(C(=O)NOC)c3)C(Cc3ccccc3)C(O)C(O)C2Cc2ccccc2)c1 (stereo not drawn) [10R] when tested with single-chain tethered dimer of HIV protease (Human immunodeficiency virus 1) stands at > 8.00

single-chain tethered dimer of HIV protease (Human immunodeficiency virus 1) data for O=C1N(Cc2cccc(-c3nnn[nH]3)c2)C(Cc2ccccc2)C(O)C(O)C(Cc2ccccc2)N1Cc1cccc(-c2nnn[nH]2)c1 (stereo not drawn) ; its pKi: > 8.00

pKi of CCC(O)CN1C(=O)N(CC(O)CC)C(Cc2ccccc2)C(O)C(O)C1Cc1ccccc1 (stereo not drawn) [15VN] , assay on single-chain tethered dimer of HIV protease (Human immunodeficiency virus 1), is < 6.00

I looked up O=C1N(CCCCC(O)CO)C(Cc2ccccc2)C(O)C(O)C(Cc2ccccc2)N1CCCCC(O)CO (stereo not drawn) [Example 13I] and its pKi for single-chain tethered dimer of HIV protease (Human immunodeficiency virus 1) was > 8.00

Tested on single-chain tethered dimer of HIV protease (Human immunodeficiency virus 1): CCNC(=O)c1cccc(CN2C(=O)N(Cc3cccc(C(=O)OC)c3)C(Cc3ccccc3)C(O)C(O)C2Cc2ccccc2)c1 (stereo not drawn) [11U] . Observed pKi: > 8.00

Record CC(=O)Oc1ccc(CN2C(=O)N(Cc3ccc(OC(C)=O)cc3)C(Cc3ccccc3)C(O)C(O)C2Cc2ccccc2)cc1 (stereo not drawn) [10L] / single-chain tethered dimer of HIV protease (Human immunodeficiency virus 1), pKi recorded as 6.00 to 8.00
